Reported ED50 values for a set of molecules
- Tested on: Escherichia coli strain c-11
- TEST NAME: Intraperitoneal E. coli infection in mice: oral cephalosporin with or without oral lactoferrin (Example 3)
- Type: in vivo
- TEST CONTEXT: antibiotic alone (Lactoferrin -), oral one hour after infection; ddY mice n=6; survivors at one week
VALUE KIND: ED50 (mg/mouse)

COC1=C(C(=O)O)N2C(=O)[C@@H](NC(=O)[C@H](N)C3=CCC=CC3)[C@H]2SC1 [cefroxadine] :: 1.27
CC1=C(C(=O)O)N2C(=O)[C@@H](NC(=O)[C@H](N)c3ccccc3)[C@H]2SC1 [cefalexin] :: 8.54
C=CC1=C(C(=O)O)N2C(=O)[C@@H](NC(=O)/C(=N\OCC(=O)O)c3csc(N)n3)[C@H]2SC1 [cefixime] :: 1.03
N[C@@H](C(=O)N[C@@H]1C(=O)N2C(C(=O)O)=C(Cl)CS[C@H]12)c1ccccc1 [cefaclor] :: 0.75
